# experimentalTarget: 5-hydroxytryptamine receptor 4 (Homo sapiens)
# Sequence (Q13639 whole entry): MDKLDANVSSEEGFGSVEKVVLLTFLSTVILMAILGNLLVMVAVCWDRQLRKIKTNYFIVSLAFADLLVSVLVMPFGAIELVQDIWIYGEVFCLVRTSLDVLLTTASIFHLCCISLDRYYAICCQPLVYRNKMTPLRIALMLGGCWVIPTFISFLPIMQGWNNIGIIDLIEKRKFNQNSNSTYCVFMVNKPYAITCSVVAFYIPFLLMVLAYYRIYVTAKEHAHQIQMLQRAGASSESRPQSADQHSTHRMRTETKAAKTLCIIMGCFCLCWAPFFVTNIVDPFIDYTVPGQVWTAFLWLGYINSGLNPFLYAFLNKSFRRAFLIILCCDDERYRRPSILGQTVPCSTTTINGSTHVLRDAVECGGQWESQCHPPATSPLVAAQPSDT
# assayProcedure: Binding affinity against 5-Hydroxytryptamine 4 receptor
metric: pKi
Give bare numbers, as −log10 of the molar value.

Hey, 5-hydroxytryptamine receptor 4 (Homo sapiens) data for Cn1cc(C(=O)C(=O)N[C@@H]2CN3CCC2CC3)c2ccccc21 : pKi came out at 6.40

###

# experimentalTarget: Alpha-1A adrenergic receptor (Homo sapiens)
# Sequence (P35348 whole entry): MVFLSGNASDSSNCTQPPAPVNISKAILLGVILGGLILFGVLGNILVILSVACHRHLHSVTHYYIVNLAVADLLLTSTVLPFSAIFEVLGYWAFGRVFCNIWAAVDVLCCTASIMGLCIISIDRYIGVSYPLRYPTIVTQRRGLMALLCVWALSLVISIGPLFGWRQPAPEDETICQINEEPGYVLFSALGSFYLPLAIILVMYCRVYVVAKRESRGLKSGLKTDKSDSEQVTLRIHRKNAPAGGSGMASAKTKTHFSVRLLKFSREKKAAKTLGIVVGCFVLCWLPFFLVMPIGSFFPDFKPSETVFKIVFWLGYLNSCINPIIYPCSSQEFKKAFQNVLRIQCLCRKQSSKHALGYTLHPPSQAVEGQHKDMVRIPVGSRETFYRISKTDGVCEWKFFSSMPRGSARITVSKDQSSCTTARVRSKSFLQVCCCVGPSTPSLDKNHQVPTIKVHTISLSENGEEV
metric: Ki (µM)
Numbers only, in µM.

Entry under test: Cn1cc(C(=O)C(=O)N[C@@H]2CN3CCC2CC3)c2ccccc21 . Its Ki was 25.1

###

# experimentalTarget: Muscarinic acetylcholine receptor M4 (Homo sapiens, UniProt P08173)
# Sequence (P08173 whole entry): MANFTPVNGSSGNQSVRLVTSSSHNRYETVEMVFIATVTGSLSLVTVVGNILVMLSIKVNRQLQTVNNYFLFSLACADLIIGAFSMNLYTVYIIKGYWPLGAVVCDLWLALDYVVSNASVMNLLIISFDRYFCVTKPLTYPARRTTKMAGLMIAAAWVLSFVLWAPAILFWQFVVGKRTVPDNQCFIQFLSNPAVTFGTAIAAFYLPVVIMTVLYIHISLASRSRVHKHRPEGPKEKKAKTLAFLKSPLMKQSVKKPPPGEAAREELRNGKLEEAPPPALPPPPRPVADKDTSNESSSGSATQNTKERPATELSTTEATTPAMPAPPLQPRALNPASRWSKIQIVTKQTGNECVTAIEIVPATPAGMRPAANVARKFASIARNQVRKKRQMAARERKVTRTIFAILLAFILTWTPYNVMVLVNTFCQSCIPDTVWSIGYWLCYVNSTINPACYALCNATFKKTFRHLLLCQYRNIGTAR
metric: pKi
One number for each entry, as −log10 of the molar value.

Field pKi (entry Cn1cc(C(=O)C(=O)N[C@H]2CN3CCC2CC3)c2ccccc21 ) reads 4.60

###

The reader will find pKi measurements below, all made with Muscarinic acetylcholine receptor M2 (Homo sapiens, UniProt P08172).
Sequence (P08172 whole entry): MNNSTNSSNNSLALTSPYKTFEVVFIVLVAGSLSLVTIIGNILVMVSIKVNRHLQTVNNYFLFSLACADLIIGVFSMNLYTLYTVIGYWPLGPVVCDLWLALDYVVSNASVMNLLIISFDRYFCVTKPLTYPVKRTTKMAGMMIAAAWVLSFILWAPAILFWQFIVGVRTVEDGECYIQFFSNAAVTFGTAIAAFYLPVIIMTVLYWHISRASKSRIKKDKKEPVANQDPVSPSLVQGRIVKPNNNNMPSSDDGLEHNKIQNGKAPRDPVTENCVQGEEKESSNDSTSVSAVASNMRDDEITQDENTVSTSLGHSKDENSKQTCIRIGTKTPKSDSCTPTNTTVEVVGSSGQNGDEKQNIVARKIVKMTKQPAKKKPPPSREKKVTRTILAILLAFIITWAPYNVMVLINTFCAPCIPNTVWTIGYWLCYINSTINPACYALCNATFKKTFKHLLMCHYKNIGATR
Numbers only, as −log10 of the molar value.

# moleculeSmiles, pKi
rows = [
    ("Cn1cc(C(=O)C(=O)N[C@H]2CN3CCC2CC3)c2ccccc21", 4.30),
]

Looking up Cn1cc(C(=O)C(=O)N[C@@H]2CN3CCC2CC3)c2ccccc21 , I found its pKi recorded as 4.30

###

# experimentalTarget: Alpha-2B adrenergic receptor (Homo sapiens, UniProt P18089)
# Sequence (P18089 whole entry): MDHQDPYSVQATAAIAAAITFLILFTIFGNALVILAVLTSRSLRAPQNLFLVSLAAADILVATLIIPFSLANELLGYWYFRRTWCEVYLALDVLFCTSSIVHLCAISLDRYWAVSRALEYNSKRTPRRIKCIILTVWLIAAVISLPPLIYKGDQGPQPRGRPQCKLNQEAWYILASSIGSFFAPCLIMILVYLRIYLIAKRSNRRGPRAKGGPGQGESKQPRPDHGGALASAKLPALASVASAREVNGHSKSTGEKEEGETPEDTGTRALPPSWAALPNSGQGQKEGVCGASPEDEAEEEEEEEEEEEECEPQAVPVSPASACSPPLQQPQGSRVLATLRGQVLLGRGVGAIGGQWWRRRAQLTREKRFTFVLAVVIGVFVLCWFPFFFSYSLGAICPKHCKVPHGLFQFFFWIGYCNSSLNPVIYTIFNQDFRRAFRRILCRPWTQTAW
metric: Ki
Param answer (str): number followed by unit.

# moleculeSmiles, metric, readoutValue
measured = [
    ("Cn1cc(C(=O)C(=O)N[C@H]2CN3CCC2CC3)c2ccccc21", "Ki", "3.16 µM"),
]

Attention now shifts to the item below.
Recorded Ki for Cn1cc(C(=O)C(=O)N[C@@H]2CN3CCC2CC3)c2ccccc21 on Alpha-2B adrenergic receptor (Homo sapiens, UniProt P18089) was 25.1 µM
